Origin of the recorded values: patent US9056840B2

- targetSystem: apoaequorin (Aequorea victoria)
- Construct: purchased Chisso Corporation
- Sequence (P07164 other isoform, or with tags, fused parts or gaps with the stated changes): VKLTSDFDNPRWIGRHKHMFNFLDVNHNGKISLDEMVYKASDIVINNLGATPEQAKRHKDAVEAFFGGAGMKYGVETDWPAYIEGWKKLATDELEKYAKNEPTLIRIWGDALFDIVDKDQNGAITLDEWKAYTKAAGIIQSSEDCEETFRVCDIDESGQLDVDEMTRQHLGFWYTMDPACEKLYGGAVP
- assayInfo: Luminescence patterns of semi-synthetic aequorins, half decay time
- Type: biochemical
- conditionDescription: semi-synthetic aequorin; time in which luminescence becomes half of maximum; patterns measured for 60 seconds
measuredMetric: Half decay time (s)
Give bare numbers, in s.

1) O=c1c(Cc2ccc(O)cc2)nc2c(-c3cc4ccccc4s3)[nH]c(-c3ccc(O)cc3)cn1-2 = 1.71
2) O=c1c(Cc2ccc(O)cc2)nc2c(-c3ccc4ccccc4c3)[nH]c(-c3ccc(O)cc3)cn1-2 = 3.42

Go through the items and report each one's Half decay time.
1. O=c1c(Cc2ccc(O)cc2)nc2c(/C=C/c3ccccc3)[nH]c(-c3ccc(O)cc3)cn1-2
2. O=c1c(Cc2ccc(O)cc2)nc2c(-c3ccc(O)cc3)[nH]c(-c3ccc(O)cc3)cn1-2
3. O=c1c(Cc2ccc(O)cc2)nc2c(-c3cccc4ccccc34)[nH]c(-c3ccc(O)cc3)cn1-2
4. Oc1ccc(Cc2nc3c(Cc4ccccc4)nc(-c4ccc(O)cc4)cn3c2O)cc1
5. O=c1c(Cc2ccc(O)cc2)nc2c(-c3ccccc3)[nH]c(-c3ccc(O)cc3)cn1-2

0.96
16.8
1.10
0.81
15.7
